The reader will find reported CAR-J2 EC50 (PGLALA-CAR-J activation, L363 target cells) values listed item by item below.
- experimental.target: human GPRC5D (human, UniProt Q9NZD1 1-345)
- Sequence (Q9NZD1 whole entry): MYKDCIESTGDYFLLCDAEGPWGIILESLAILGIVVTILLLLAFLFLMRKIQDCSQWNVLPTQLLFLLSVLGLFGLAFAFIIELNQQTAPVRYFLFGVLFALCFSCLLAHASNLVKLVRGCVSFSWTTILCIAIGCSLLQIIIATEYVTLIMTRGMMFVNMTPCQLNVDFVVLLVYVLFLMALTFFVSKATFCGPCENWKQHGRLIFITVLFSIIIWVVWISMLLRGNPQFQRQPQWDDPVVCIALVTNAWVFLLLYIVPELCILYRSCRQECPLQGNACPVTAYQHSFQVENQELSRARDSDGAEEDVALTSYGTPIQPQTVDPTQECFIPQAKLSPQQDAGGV
- method.summary: cell-based or functional assay
Entry rule: numbers only, all in µg/mL.

Use the examples below as a reference point.
binder | experimental.value
P1AE5725 (antibody, V domains shown) VH: EVQLLESGGGLVQPGGSLRLSCAASGFTFSKYAMAWVRQAPGKGLEWVASISTGGVNTYYADSVKGRFTISRDNSKNTLYLQMNSLRAEDTAVYYCATHTGDYFDYWGQGTMVTVSS VL: DIQMTQSPSSLSASVGDRVTITCRASQSVSISGINLMNWYQQKPGQQPKLLIYHASILASGVPSRFSGSGSGTDFTLTISSLQPEDFATYYCQQTRESPLTFGQGTRLEIK | 0.0109
P1AE5729 (antibody, V domains shown) VH: ELQLLESGGGLVQPGGSLRLSCAASGFTFSKYAMAWVRQAPGKGLEWVASISTGGVNTYYADSVKGRFTISRDNAKNTLYLQMNSLRAEDTAVYYCATHTGDYFDYWGQGTMVTVSS VL: EIVLTQSPGTLSLSPGERATLSCRASQSVSISGINLMNWYQQKPGQQPKLLIYHASILASGIPDRFSGSGSGTDFTLTISRLEPEDFAVYYCQQTRESPLTFGQGTRLEIK | 0.0613
P1AE5707 (antibody, V domains shown) VH: EVQLLESGGGLVQPGGSLRLSCAASGFTFSKYAMAWVRQAPGKGLEWVASISTGGVNTYYRDSVKARFTISRDNSKNTLYLQMNSLRAEDTAVYYCATHTGDYFDYWGQGTMVTVSS VL: DIVMTQSPDSLAVSLGERATINCRASQSVSISGINLMNWYQQKPGQQPKLLIYHASILASGVPDRFSGSGSGTDFTLTISSLQAEDVAVYYCQQTRESPLTFGQGTRLEIK | 0.0424

For P1AE5722 (antibody, V domains shown) VH: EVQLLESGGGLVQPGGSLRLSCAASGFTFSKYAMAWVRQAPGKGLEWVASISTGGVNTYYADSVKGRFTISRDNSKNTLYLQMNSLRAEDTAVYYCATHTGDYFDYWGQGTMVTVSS VL: EIVLTQSPGTLSLSPGERATLSCRASQSVSISGINLMNWYQQKPGQQPRLLIYHASILASGIPDRFSGSGSGTDFTLTISRLEPEDFAVYYCQQTRESPLTFGQGTRLEIK , what is its reported CAR-J2 EC50 (PGLALA-CAR-J activation, L363 target cells)? 0.0046
